# assayProtocol: in vitro
# measurementParameters: human, hela cells, % viability
Labelling field: enter T if recorded viability at 28.5 h, 10 µM is less than 90%. Enter F if it equals or exceeds that cut-off.

[
  {
    "molecule": "CC(=O)Nc1ccc(-c2cncc(Nc3ccc(C#N)cc3)n2)cc1",
    "assignedClass": "F"
  },
  {
    "molecule": "CC(=O)N1CCc2c([nH]c3ccccc23)C1CCN(C)Cc1ccc(F)cc1 (centres unmarked)",
    "assignedClass": "F"
  },
  {
    "molecule": "O=C(O)Cc1sc(Nc2ccccc2)nc1-c1ccccc1",
    "assignedClass": "F"
  },
  {
    "molecule": "c1ccc(Cn2c(CN3CCCCC3)nc3ccccc32)cc1",
    "assignedClass": "F"
  },
  {
    "molecule": "Nc1cc2cccnc2nc1-c1cccnc1",
    "assignedClass": "T"
  }
]

Then there is this molecule:
Just wondering, is viability at 28.5 h, 10 µM of `COc1ccccc1CN(Cc1cccnc1)C(=O)CNC(C)=O` below 90%?
F
